Tested on: SR leukemia
Test: NCI-60 one-dose screen, 48 h (100 = growth as untreated, 0 = no growth, -100 = all killed)
Conditions: 10 µM
Description: Growth inhibition of the SR human tumor cell line is measured as a screen for anti-cancer activity. Cells are grown in 96 well plates and exposed to the test compound for 48 hours. Compounds are tested at a single concentration, which is 10^-5 M for most compounds. The reported endpoint is percent growth (GI% or GIPRCNT), where numbers from 0 - 100% represent growth inhibition, and numbers from -100% - 0 represent cell death. For example, a value of 40 represents 60% growth inhibition. […]
This is part of a sample that, as a whole, favours compounds with a hit. Of some 83,000 tested, about 20% had one in any assay.
Field: growth. Provide a value for each of the compounds that follow.
Dear colleague, please return just the value in %, with no unit written.

Look up growth for this compound: "N=C(N)c1ccc(-c2ccc(-c3ccccc3)s2)s1"
-40

Look up growth for this compound: COc1cc(C2C(C#N)=C(c3c[nH]c4ccccc34)Nc3nc(N)[nH]c(=O)c32)cc(OC)c1OC (stereo not given)
78.7

Look up growth for this compound: COc1ccc(C2C=C(c3ccc(OC)c(OC)c3)N=C3SC=CN32)c(Br)c1 (stereo not given)
-14.8

Look up growth for this compound: "O=C(NCc1cn(Cc2cccc(Oc3ccccc3)c2)nn1)c1cccnc1Nc1ccccc1"
16.3

Look up growth for this compound: COc1cc(C2c3cc4c(cc3C(O)C(CO)C2CO)OCO4)cc(OC)c1OC (stereo not given)
6.26

Look up growth for this compound: "CCCCn1c(=O)[nH]c(N)c(C(c2ccc(Cl)cc2)c2c(N)[nH]c(=O)n(CCCC)c2=O)c1=O"
24.2

Look up growth for this compound: "CCc1ccc(-c2nnc(COc3ccc(-c4nc5cc(Cl)c(Cl)cc5[nH]4)cc3OC)o2)cc1"
0.504

Look up growth for this compound: CN(C)c1ccc2c(c1)OC(N)=C(C#N)C2c1ccc2c(c1)CCCN2C (stereo not given)
29.5

Look up growth for this compound: "Brc1ccc(-c2cn3ccnc3c(-c3ccc(Br)cc3)n2)cc1"
13.4

Look up growth for this compound: "CNCCCNCCCN1C(=O)c2ccc3c4c(ccc(c24)C1=O)C(=O)N(CCCNCc1ccccc1OC)C3=O"
-0.146

====

test system: SN12C renal; assay: NCI-60 one-dose screen, 48 h (100 = growth as untreated, 0 = no growth, -100 = all killed); conditions: 10 µM
The panel holds about 83,000 compounds, 20% with a hit somewhere; the sample as a whole holds those more often. The source made the active and inactive calls. How the source made its calls: active means growth percent below 10; inactive means the rest.
assayEndpoint: growth

Look up growth for this molecule: "C=CCN1C(=O)/C(=C\c2ccc3c(c2)CCC3)SC1=S"
102% (inactive)

Look up growth for this molecule: "COc1cccc(-c2nnc(COc3ccc(-c4nc5ccccc5[nH]4)cc3OC)o2)c1"
85.9% (inactive)

Look up growth for this molecule: "Cc1ccc(Cl)cc1Nc1nc(C(F)(F)F)ccc1C(=O)N/N=C/c1c(Cl)cccc1Cl"
9.96% (active)

Look up growth for this molecule: "COc1ccc(-c2cc(/C=C3\C(=O)Nc4cc(Cl)ccc43)[nH]n2)cc1"
41.7% (inactive)

Look up growth for this molecule: "Cc1ccc(-c2cc(C(=O)Nc3ccc(S(=O)(=O)N4CCCCC4)cc3)[nH]n2)c(O)c1"
53.3% (inactive)

Look up growth for this molecule: CC1=CC2OC34COC3CC(OC(=O)C(F)(F)F)C4(C)C2(C)CC1 (stereo unspecified)
98.4% (inactive)

Look up growth for this molecule: "CCOC(=O)CSC(=S)SCC(=O)OCC"
106% (inactive)

Look up growth for this molecule: "COc1ccc(C(=O)c2sc3nc(-c4cccs4)ccc3c2N)cc1OC"
62% (inactive)

Look up growth for this molecule: "N=C(N)c1ccc(-c2ccc(-c3ccccc3)s2)cc1F"
-83.6% (active)

Look up growth for this molecule: "N#Cc1ncc(-c2cc(F)ccc2F)c(NC2CCCCCC2)n1"
80.8% (inactive)

Look up growth for this molecule: "O=C(NNC(=O)c1ccncc1)Nc1ccc([N+](=O)[O-])cc1"
114% (inactive)

Look up growth for this molecule: "COc1ccc(-n2nnc3c(sc4ccccc43)c2=O)cc1"
61.9% (inactive)

Look up growth for this molecule: NC(=O)C12C(=O)NC(=O)C1(C(=O)O)C21CCCC1 (stereo unspecified)
101% (inactive)

Look up growth for this molecule: "O=NN(CCCl)C(=O)NCc1ccc(-c2ccc(CNC(=O)N(CCCl)N=O)cc2)cc1"
97.8% (inactive)

Look up growth for this molecule: "CCCn1c(=O)c2c(nc(-c3cccc(OCCCCl)c3)n2C)n(CCC)c1=O"
37.3% (inactive)

Look up growth for this molecule: "CS(=O)(=O)Nc1ccc(OCc2nnc(-c3ccc(Cl)cc3)o2)c(F)c1"
88.1% (inactive)

Look up growth for this molecule: "C[C@]12CC[C@H]3[C@@H](CCC4=CC(=O)CC[C@@]43C)[C@@H]1CC[C@@H]2c1csc(N)n1"
71.8% (inactive)

Look up growth for this molecule: "COc1cc(CSc2nc3ccc(C)cc3c(=O)n2Cc2ccccc2)cc(OC)c1OC"
40% (inactive)

Look up growth for this molecule: "Cc1ccc(NC(=O)/C=N/O)cc1C"
103% (inactive)

Look up growth for this molecule: "Cc1cc(OI)c(C(C)C)cc1-c1cc(C(C)C)c(OI)cc1C"
101% (inactive)

Look up growth for this molecule: "COc1cc([C@@H]2c3cc4c(cc3[C@H](SC(=N)N)[C@H]3COC(=O)[C@H]23)OCO4)cc(OC)c1OC"
27.3% (inactive)

Look up growth for this molecule: CCCCCCCCCCCC(c1ccccc1)N(C)C (stereo unspecified)
90.7% (inactive)

Look up growth for this molecule: "CCOC(=O)C(=O)Cc1cccnn1"
99.9% (inactive)

Look up growth for this molecule: "CCc1ccc(-c2nnc(COc3ccc(-c4nc5cc(Cl)c(Cl)cc5[nH]4)cc3OC)o2)cc1"
21.9% (inactive)

Look up growth for this molecule: "COc1ccc2c(=O)cc(C(Cl)(Cl)Cl)oc2c1"
2.57% (active)

Look up growth for this molecule: "COc1ccc(S(=O)(=O)Nc2ccc(OCc3nnc(-c4ccc(Cl)cc4)o3)c(F)c2)cc1"
68.1% (inactive)

====

test system: SK-OV-3 ovarian; experiment: NCI-60 one-dose screen, 48 h (100 = growth as untreated, 0 = no growth, -100 = all killed); details: 10 µM
This is part of a sample that, as a whole, favours compounds with a hit. Of some 83,000 tested, about 20% had one in any assay.
assayEndpoint: growth (%)
Dear colleague, please return just the value in %, with no unit written.

Look up growth for this compound: "C=CCOc1ccc2c(c1)CC=C1[C@@H]2CC[C@]2(C)C(=O)/C(=N/O)C[C@@H]12"
121

Look up growth for this compound: "COc1cc(/C=C/C(=O)c2cc(-c3ccc(F)cc3)ccc2O)cc(OC)c1OC"
89.5

Look up growth for this compound: "CC(C)CCN(CCCNc1c2c(nc3cc(Cl)ccc13)CCCC2)CCC(C)C"
93.2

Look up growth for this compound: COc1cc(C(c2c[nH]c3ccccc23)N2CCCC2)ccc1OCc1ccccc1 (configuration not stated)
89.5

Look up growth for this compound: "Cc1nn2c(/C=C3/C(=O)Nc4ccc(Cl)cc43)c(-c3ccccc3)nc2s1"
-0.11

Look up growth for this compound: "O=[N+]([O-])c1ccc(-c2nc(-c3ccccc3)c(-c3ccccc3)n2-c2ccccc2)cc1"
55.5

Look up growth for this compound: "CCCCC(=O)N(c1ccc(Nc2c3ccccc3nc3cc([N+](=O)[O-])ccc23)cc1)S(C)(=O)=O"
80

Look up growth for this compound: "COc1ccc2c(c1)/C(=C/c1cc(OC)c(OC)c(OC)c1)C(=O)N2C"
19.3

Look up growth for this compound: NC1CCC(Nc2nc(NCc3ccc(-c4cccs4)nc3)c3ncn(C4CCCC4)c3n2)CC1 (configuration not stated)
4.04

Look up growth for this compound: "COc1ccc2nc(-c3ccccc3)cc(C(C)=O)c2c1"
107

Look up growth for this compound: "CCOc1ccc(-n2cc(-c3ccc(N(C)C)cc3)[n+]3c2CCCCC3)cc1"
-5.85

Look up growth for this compound: "Cc1cc(/C=C2\SC(=Nc3ccccc3)N(C3CCCC3)C2=O)c(C)n1-c1ccc(Cl)cc1"
-90.5

Look up growth for this compound: "CCCCCc1cc[n+](CC(=O)c2ccc(Cl)cc2)cc1"
99.1

Look up growth for this compound: "Fc1ccc2[nH]c3c(NCCCN4CCOCC4)ncnc3c2c1"
33.4

Look up growth for this compound: "O=NN(CCCl)C(=O)Nc1ccc(NC(=O)N(CCCl)N=O)cc1"
105

Look up growth for this compound: "CCOCC[P+](c1ccccc1)(c1ccccc1)c1ccccc1"
60.3

Look up growth for this compound: "Cn1cnc([N+](=O)[O-])c1/C=C1\Oc2ccc(Cl)cc2C1=O"
96.2

Look up growth for this compound: "COc1ccc(Nc2ccnc(N3CCN(c4ccnc5cc(Cl)ccc45)CC3)n2)cc1"
12.7

Look up growth for this compound: "CC(=O)n1nc(C(=O)OC(C)(C)C)c2cc(F)c(F)cc21"
114

Look up growth for this compound: "CNCCCNCCCN1C(=O)c2ccc3c4c(ccc(c24)C1=O)C(=O)N(CCCNCc1ccccc1OC)C3=O"
36.8

Look up growth for this compound: "Cc1cc(Cl)ccc1Nc1nc(C(F)(F)F)ccc1C(=O)N/N=C/c1ccccc1Cl"
10.4

Look up growth for this compound: COc1cc(C2C=C(c3ccc(Cl)cc3)N=C3SC(C)=CN32)cc(OC)c1OC (configuration not stated)
118

Look up growth for this compound: CC(CNC(Cc1ccccc1)c1ccccc1)NC(Cc1ccccc1)c1ccccc1 (configuration not stated)
81.7

Look up growth for this compound: "O=C1NN(c2ccccc2)C(c2cccnc2)=N/C1=C\c1cccnc1"
104

Look up growth for this compound: "Cc1ccc(-n2c(-c3cc4c([nH]c5ccccc54)c(-c4cccc(O)c4)n3)n[nH]c2=S)cc1"
-14.5

Look up growth for this compound: "Cc1ccc(-c2cc(C(=O)Nc3ccc(S(=O)(=O)N4CCCCC4)cc3)[nH]n2)c(O)c1"
94.1

Look up growth for this compound: "CCN(CC)CCCOC(=O)Nc1ccccc1Cl"
111
